target of assay: T1, Monomeric human CD48-mmH (human)
T1 chain: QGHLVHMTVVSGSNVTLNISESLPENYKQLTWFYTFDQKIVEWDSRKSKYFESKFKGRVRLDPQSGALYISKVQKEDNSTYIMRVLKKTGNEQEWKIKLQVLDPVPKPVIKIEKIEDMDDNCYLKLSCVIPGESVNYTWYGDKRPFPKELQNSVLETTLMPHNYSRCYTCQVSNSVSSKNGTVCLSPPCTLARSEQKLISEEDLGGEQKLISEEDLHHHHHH
protocol text: SPR (Biacore), antibody captured by anti-Fc, CD48 in solution, 37 C
Experimental: Measurements were conducted on a T100-2 BIACORE™ instrument (Biacore Life Sciences division of GE Healthcare, Piscataway, N.J.). […] The soluble CD48 was applied to the flow cell in separate injections at different concentrations, and kinetic association (kₐ) and dissociation (kd) rate constants were determined by fits to the kinetic binding data using Biacore software. […]
readout name: kon (M⁻¹ s⁻¹)
Response body: numeric value in M⁻¹ s⁻¹, unit text excluded.

Qu. Item H2M1710N (antibody, mouse IgG2, V domains shown, Human variable domains, mouse IgG2 Fc (H2M)) VH: QVQLVQSGADMKKPGASVRVSCKASGYTFTDYFIHWVRQAPGQGPEWMGWINPDSGATNYAQQFQGRVTMTRDTSISATYMEMSRLRSDDTAVFYCARDKDGSGWYLDDWGQGTLVTVSS VL: EIVLTQSPATLSLSPGERATLSCRASQSVNIYLAWYQQKPGQAPRLLIYDASNRASGIPARFSGSGSGTDFTLTISSLEPEDFAVYYCQQRSNWPPSITFGQGTRLEIK has what recorded kon?
Ans. 34000

Qu. Item H2M1709N (antibody, mouse IgG2, V domains shown, Human variable domains, mouse IgG2 Fc (H2M)) VH: QVQLVQSGAEVKKPGASVKVSCKVSGYTLTELSIHWVRQAPGKGLEWMGGFDPEDGETIYAQKFQGRVNMTEDTSTDTAYMELSSLRSDDTTVYFCASLLPYFDYWGQGTLVTVSS VL: EIVLTQSPGTLSLSPGERATLSCRASQSVSSSYLAWYQQKPGQAPRLLIYGASSRATGIPDRFSGSGSGTDFTLSISRLEPEDFAVYFCQQYGSSMYTFGQGTKLEIK has what recorded kon?
Ans. 1.14e+06

Qu. Item H4H1763N (antibody, V domains shown, Human IgG4 Fc (H4H)) VH: QIQLVQSGAEMKRPGTSVKVSCKASGYTFTSYGINWVRQAPGQGLEWMGWISAYNGDTNYAQKLQGRVTMTTDTSTTTAYMEVRSLRSDDTAVYYCARFLTGTKDYYYGMDVWGQGTTVTVSS VL: DIQMTQSPSSLSASVGDRVTITCQASQDISNFLNWYQQKPGKAPDLLINDASILETGVPSRFSGSGSGTDFTLTINNLQPEDIATYYCQQYDNLPLTFGGGTKVEIK has what recorded kon?
Ans. 1.33e+06

Qu. Item H3M1766N (antibody, V domains shown, Human variable domains, mouse Fc (H3M); also called H2M1766N) VH: EVQLVESGGGLAQPGGSLRLSCAASGFTFSSYEMNWVRQAPGKGLEWVSYITTSGSTIYYADSVKGRFTMSRDNAKKSLYLEMNSLRAEDTAVYYCAREECTNGVCYKDYQYYGMDVWGQGTTVTVSS VL: DIQMTQSPSSVSASVGDRVTITCRASQNINTWLAWYQQKPGKVPKLLIYAASSLQSGVPSRFSGSGSGTDFTLTISSLQPEDFATYYCQQANSFPLTFGGGTKVEIK has what recorded kon?
Ans. 161000
